measured_target: T1, recombinant human PD-1 dimer expressed with a C-terminal mouse IgG2a Fc tag (human)
T1 construct: also called hPD-1-mFc
T1 sequence (chain, as listed by the source limits assumed): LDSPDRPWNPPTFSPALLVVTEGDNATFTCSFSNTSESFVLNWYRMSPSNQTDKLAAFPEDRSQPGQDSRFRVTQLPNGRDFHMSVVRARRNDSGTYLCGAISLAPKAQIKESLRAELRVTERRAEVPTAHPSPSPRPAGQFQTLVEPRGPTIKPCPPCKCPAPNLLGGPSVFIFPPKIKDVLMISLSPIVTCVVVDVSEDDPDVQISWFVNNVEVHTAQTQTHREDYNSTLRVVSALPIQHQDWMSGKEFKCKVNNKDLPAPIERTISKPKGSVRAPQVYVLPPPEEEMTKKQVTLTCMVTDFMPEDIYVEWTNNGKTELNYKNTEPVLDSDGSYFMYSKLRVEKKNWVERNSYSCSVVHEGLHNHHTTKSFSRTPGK
test_summary: BLI Octet: 100 nM hPD-1-mFc + 500 nM mAb to captured hPD-L1-hFc
measured_attribute: binding of the mixture (nm)
Write down the numeric answer in nm and omit the unit.

H2aM7780N (antibody, V domains shown, human variable regions, mouse IgG2a Fc; also called H2M7780N) VH: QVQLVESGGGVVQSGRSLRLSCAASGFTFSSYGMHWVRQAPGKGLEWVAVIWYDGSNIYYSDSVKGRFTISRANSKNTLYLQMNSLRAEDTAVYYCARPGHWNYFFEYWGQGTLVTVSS VL: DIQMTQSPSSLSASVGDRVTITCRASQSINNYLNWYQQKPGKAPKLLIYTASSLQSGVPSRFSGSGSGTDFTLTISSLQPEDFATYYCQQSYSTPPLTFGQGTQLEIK    -0.01

(Q) Which binding of the mixture (nm) is listed for H2aM7795N (antibody, V domains shown, human variable regions, mouse IgG2a Fc; also called H2M7795N) VH: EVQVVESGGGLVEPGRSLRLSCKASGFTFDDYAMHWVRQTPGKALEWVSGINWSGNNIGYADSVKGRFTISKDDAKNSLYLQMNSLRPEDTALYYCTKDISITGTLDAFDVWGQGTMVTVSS VL: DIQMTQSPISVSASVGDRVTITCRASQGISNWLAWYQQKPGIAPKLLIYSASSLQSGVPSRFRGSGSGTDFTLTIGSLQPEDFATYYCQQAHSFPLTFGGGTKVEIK ?
(A) -0.01

(Q) Which binding of the mixture (nm) is listed for H1M7799N (antibody, V domains shown, human variable regions, mouse IgG1 Fc) VH: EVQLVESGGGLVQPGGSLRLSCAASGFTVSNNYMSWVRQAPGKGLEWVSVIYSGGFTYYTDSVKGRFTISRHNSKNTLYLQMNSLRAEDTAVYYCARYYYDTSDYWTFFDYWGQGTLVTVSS VL: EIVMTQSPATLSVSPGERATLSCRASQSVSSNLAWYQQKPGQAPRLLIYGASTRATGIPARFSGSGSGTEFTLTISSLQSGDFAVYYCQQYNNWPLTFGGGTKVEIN ?
(A) 0

(Q) Which binding of the mixture (nm) is listed for H1M7800N (antibody, V domains shown, human variable regions, mouse IgG1 Fc) VH: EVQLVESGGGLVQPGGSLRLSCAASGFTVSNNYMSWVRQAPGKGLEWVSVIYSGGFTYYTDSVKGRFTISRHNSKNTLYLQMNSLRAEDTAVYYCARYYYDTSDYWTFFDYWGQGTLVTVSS VL: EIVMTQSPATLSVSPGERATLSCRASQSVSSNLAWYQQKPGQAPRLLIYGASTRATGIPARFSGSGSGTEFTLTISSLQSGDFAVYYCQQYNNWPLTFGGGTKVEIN ?
(A) 0

(Q) Which binding of the mixture (nm) is listed for H2aM7798N (antibody, V domains shown, human variable regions, mouse IgG2a Fc; also called H2M7798N) VH: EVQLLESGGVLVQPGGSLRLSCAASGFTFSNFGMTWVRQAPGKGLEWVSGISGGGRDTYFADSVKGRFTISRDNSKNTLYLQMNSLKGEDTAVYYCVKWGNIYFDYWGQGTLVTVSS VL: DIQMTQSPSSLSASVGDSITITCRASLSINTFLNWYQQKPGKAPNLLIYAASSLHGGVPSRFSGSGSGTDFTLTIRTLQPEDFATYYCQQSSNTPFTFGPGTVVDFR ?
(A) 0.01
